target: recombinant cynomolgus monkey CD3ε/δ heterodimer (cynomolgus monkey) (UniProt Q95LI5); test: BLI (Octet), antigen on anti-Penta His sensor, antibody 50 nM
Sequence (Q95LI5 22-117, stated change not applied, chain 1 of 2): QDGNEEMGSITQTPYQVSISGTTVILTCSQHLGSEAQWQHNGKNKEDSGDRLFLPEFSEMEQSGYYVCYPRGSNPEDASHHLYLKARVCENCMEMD
Sequence (Q95LI8 22-105, stated change not applied, chain 2 of 2, further chain): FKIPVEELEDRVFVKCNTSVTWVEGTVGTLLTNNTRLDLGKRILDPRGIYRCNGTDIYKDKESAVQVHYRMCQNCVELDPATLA
Listed here are binders together with their documented Kd.
The reply should contain only the number, in nM.

[[record]]
binder = "C08 (antibody, human IgG1, lambda, L234A L235A, V domains shown) VH: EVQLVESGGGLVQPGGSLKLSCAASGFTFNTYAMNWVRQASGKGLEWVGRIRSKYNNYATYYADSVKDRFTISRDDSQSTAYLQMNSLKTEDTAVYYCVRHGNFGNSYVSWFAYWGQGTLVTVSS VL: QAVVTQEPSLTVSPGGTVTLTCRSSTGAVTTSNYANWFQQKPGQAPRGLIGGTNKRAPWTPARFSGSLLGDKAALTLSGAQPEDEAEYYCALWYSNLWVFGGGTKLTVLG"
reported_value = 35.6


[ask] I have this binder here, E16 (antibody, human IgG1, lambda, L234A L235A, V domains shown) VH: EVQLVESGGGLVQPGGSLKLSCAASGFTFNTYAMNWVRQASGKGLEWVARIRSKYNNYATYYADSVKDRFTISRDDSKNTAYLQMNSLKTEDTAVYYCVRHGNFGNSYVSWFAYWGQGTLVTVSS VL: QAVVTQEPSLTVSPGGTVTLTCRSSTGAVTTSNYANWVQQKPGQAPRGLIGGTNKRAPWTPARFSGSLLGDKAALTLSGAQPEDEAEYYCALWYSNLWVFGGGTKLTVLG , and I need its recorded Kd.
[reply] 2.19

[ask] Consider next the binder D08 (antibody, human IgG1, lambda, L234A L235A, V domains shown) VH: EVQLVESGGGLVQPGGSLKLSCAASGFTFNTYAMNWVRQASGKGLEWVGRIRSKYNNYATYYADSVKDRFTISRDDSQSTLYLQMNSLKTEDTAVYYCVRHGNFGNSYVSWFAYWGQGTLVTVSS VL: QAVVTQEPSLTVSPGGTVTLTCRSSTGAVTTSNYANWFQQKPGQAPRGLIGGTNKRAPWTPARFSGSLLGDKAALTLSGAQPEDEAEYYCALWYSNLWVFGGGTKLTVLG in the same way.
[reply] 21.6

[ask] Consider next the binder D15 (antibody, human IgG1, lambda, L234A L235A, V domains shown) VH: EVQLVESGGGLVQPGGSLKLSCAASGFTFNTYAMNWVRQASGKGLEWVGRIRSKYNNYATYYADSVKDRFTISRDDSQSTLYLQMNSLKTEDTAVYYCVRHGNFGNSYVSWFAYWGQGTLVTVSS VL: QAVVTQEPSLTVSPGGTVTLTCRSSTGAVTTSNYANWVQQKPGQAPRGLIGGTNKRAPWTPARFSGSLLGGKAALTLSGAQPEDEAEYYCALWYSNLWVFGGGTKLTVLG in the same way.
[reply] 0.533
